molecular target: T1, human GLP-1 receptor (human, UniProt P43220 24-463); assay: radioligand competition: displacement of [125I]GLP-1 from membranes of cells over-expressing human GLP-1R; ratio = Ki of GLP-1 / Ki of compound
T1 construct: whole, on cells; Functional assays: HEK293/CRE/GLP-1R cells, human GLP-1R-HEK cells and transiently transfected CHO-K1 cells; also called hGLP-1R
Parameter: Ki ratio. Scope: all listed entries.

[
  {
    "Binder": "YXEGTXTSDYXIXLDKQAQAEFVKWLLKGGPSSGAPPPSK (Aib at 2, αMePhe at 6, Aib at 11, Aib at 13; C-terminal primary amide) [P001]",
    "Recorded Value": "19.5 ratio"
  },
  {
    "Binder": "YXEGTXTSDYXIXLDKQAQAEFVKWLLKGGPSSGAPPPSK (Aib at 2, αMePhe at 6, Aib at 11, Aib at 13; K at position 24 conjugated at the ε-amino with ([2-(2-amino-ethoxy)-ethoxy]-acetyl)2-(γ-Glu)1-CO-(CH2)16-CO2H; C-terminal primary amide) [P007]",
    "Recorded Value": "0.47 ratio"
  },
  {
    "Binder": "YXEGTXTSDYXIXLDKQAQAEFVKWLLKGGPSSGAPPPSK (Aib at 2, αMePhe at 6, Aib at 11, Aib at 13; K at position 28 conjugated at the ε-amino with ([2-(2-amino-ethoxy)-ethoxy]-acetyl)2-(γ-Glu)1-CO-(CH2)16-CO2H; C-terminal primary amide) [P008]",
    "Recorded Value": "1.09 ratio"
  }
]

Next:
Qu. Reported Ki ratio for YXEGTXTSDYXIXLDKQAQAEFVKWLLKGGPSSGAPPPSK (Aib at 2, αMePhe at 6, Aib at 11, Aib at 13; K at position 24 conjugated at the ε-amino with ([2-(2-amino-ethoxy)-ethoxy]-acetyl)2-(γ-Glu)1-CO-(CH2)18-CO2H; C-terminal primary amide) [P013] : what is it?
Ans. 0.28 ratio

The origin of these recorded values is patent US20240325549A1.
